Please go through the items and note down their % cell inhibition at 50 μg/mL.
test system: mouse macrophage RAW 264.7 cells; settings: RAW 264.7 cells; 50 μg/mL; 48 hr; MTT
Entry rule: numbers only, all in %.

IN: Sample O=C(CCNS(=O)(=O)c1ccc([N+](=O)[O-])cc1[N+](=O)[O-])N1CCN(C(c2ccccc2)c2ccccc2)CC1 [7k] — what was its % cell inhibition at 50 μg/mL?
OUT: 61.4

IN: Sample O=C(C1CCCN(S(=O)(=O)c2ccc([N+](=O)[O-])cc2[N+](=O)[O-])C1)N1CCN(C(c2ccc(F)cc2)c2ccc(F)cc2)CC1 (stereo not shown) [7v] — what was its % cell inhibition at 50 μg/mL?
OUT: 55.7

IN: Sample CO[C@H]1/C=C/O[C@@]2(C)Oc3c(C)c(O)c4c(O)c(c(/C=N/N5CCN(C)CC5)c(O)c4c3C2=O)NC(=O)/C(C)=C\C=C\[C@H](C)[C@H](O)[C@@H](C)[C@@H](O)[C@@H](C)[C@H](OC(C)=O)[C@@H]1C [Rifampicin, reference compound] — what was its % cell inhibition at 50 μg/mL?
OUT: 90

IN: Sample O=C(C1CCN(S(=O)(=O)c2ccc([N+](=O)[O-])cc2[N+](=O)[O-])CC1)N1CCN(C(c2ccccc2)c2ccccc2)CC1 [7o] — what was its % cell inhibition at 50 μg/mL?
OUT: 57.2

IN: Sample O=[N+]([O-])c1ccc(S(=O)(=O)N2CCN(C(c3ccccc3)c3ccccc3)CC2)c([N+](=O)[O-])c1 [7a] — what was its % cell inhibition at 50 μg/mL?
OUT: 57.6

IN: Sample O=C(C1CCN(S(=O)(=O)c2ccc([N+](=O)[O-])cc2[N+](=O)[O-])C1)N1CCN(C(c2ccccc2)c2ccccc2)CC1 (stereo not shown) [7y] — what was its % cell inhibition at 50 μg/mL?
OUT: 59.6

IN: Sample NNC(=O)c1ccncc1 [Isoniazid, reference compound] — what was its % cell inhibition at 50 μg/mL?
OUT: 97

IN: Sample O=C(CCCNS(=O)(=O)c1ccc([N+](=O)[O-])cc1[N+](=O)[O-])N1CCN(C(c2ccc(F)cc2)c2ccc(F)cc2)CC1 [7aa] — what was its % cell inhibition at 50 μg/mL?
OUT: 59.2

IN: Sample O=C(C1CCCN(S(=O)(=O)c2ccc([N+](=O)[O-])cc2[N+](=O)[O-])C1)N1CCN(C(c2ccccc2)c2ccccc2)CC1 (stereo not shown) [7s] — what was its % cell inhibition at 50 μg/mL?
OUT: 59.2

IN: Sample O=C(CCNS(=O)(=O)c1ccc([N+](=O)[O-])cc1[N+](=O)[O-])N1CCN(C(c2ccc(F)cc2)c2ccc(F)cc2)CC1 [7l] — what was its % cell inhibition at 50 μg/mL?
OUT: 60.2

---

assay: in vitro; conditions: mouse
assay readout: IC50

IN: Sample CO[C@H]1/C=C/O[C@@]2(C)Oc3c(C)c(O)c4c(O)c(c(/C=N/N5CCN(C)CC5)c(O)c4c3C2=O)NC(=O)/C(C)=C\C=C\[C@H](C)[C@H](O)[C@@H](C)[C@@H](O)[C@@H](C)[C@H](OC(C)=O)[C@@H]1C [Rifampicin, reference compound] — what was its IC50?
OUT: > 25 µg/mL

IN: Sample O=C(C1CCCN(S(=O)(=O)c2ccc([N+](=O)[O-])cc2[N+](=O)[O-])C1)N1CCN(C(c2ccccc2)c2ccccc2)CC1 (stereo not shown) [7s] — what was its IC50?
OUT: > 50 µg/mL

IN: Sample O=C(C1CCN(S(=O)(=O)c2ccc([N+](=O)[O-])cc2[N+](=O)[O-])CC1)N1CCN(C(c2ccccc2)c2ccccc2)CC1 [7o] — what was its IC50?
OUT: > 50 µg/mL

IN: Sample O=C(CCNS(=O)(=O)c1ccc([N+](=O)[O-])cc1[N+](=O)[O-])N1CCN(C(c2ccc(F)cc2)c2ccc(F)cc2)CC1 [7l] — what was its IC50?
OUT: > 50 µg/mL

IN: Sample NNC(=O)c1ccncc1 [Isoniazid, reference compound] — what was its IC50?
OUT: > 25 µg/mL

IN: Sample O=C(C1CCN(S(=O)(=O)c2ccc([N+](=O)[O-])cc2[N+](=O)[O-])C1)N1CCN(C(c2ccccc2)c2ccccc2)CC1 (stereo not shown) [7y] — what was its IC50?
OUT: > 50 µg/mL

IN: Sample O=C(CCNS(=O)(=O)c1ccc([N+](=O)[O-])cc1[N+](=O)[O-])N1CCN(C(c2ccccc2)c2ccccc2)CC1 [7k] — what was its IC50?
OUT: > 50 µg/mL

IN: Sample O=C(C1CCCN(S(=O)(=O)c2ccc([N+](=O)[O-])cc2[N+](=O)[O-])C1)N1CCN(C(c2ccc(F)cc2)c2ccc(F)cc2)CC1 (stereo not shown) [7v] — what was its IC50?
OUT: > 50 µg/mL

IN: Sample O=C(CCCNS(=O)(=O)c1ccc([N+](=O)[O-])cc1[N+](=O)[O-])N1CCN(C(c2ccc(F)cc2)c2ccc(F)cc2)CC1 [7aa] — what was its IC50?
OUT: > 50 µg/mL

IN: Sample O=[N+]([O-])c1ccc(S(=O)(=O)N2CCN(C(c3ccccc3)c3ccccc3)CC2)c([N+](=O)[O-])c1 [7a] — what was its IC50?
OUT: > 50 µg/mL

---

Please go through the items and note down their MIC.
test system: Mycobacterium tuberculosis H37Rv (ATCC27294); test: microbe, parasite or virus in culture; type: cell-based; settings: Mycobacterium tuberculosis, ATCC27294|H37RV

IN: Sample O=[N+]([O-])c1ccccc1S(=O)(=O)N1CCN(C(c2ccc(F)cc2)c2ccc(F)cc2)CC1 [7e] — what was its MIC?
OUT: > 25 µg/mL

IN: Sample O=[N+]([O-])c1ccc(S(=O)(=O)N2CCN(C(c3ccccc3)c3ccccc3)CC2)cc1 [7c] — what was its MIC?
OUT: > 25 µg/mL

IN: Sample O=C(C1CCN(S(=O)(=O)c2ccccc2[N+](=O)[O-])CC1)N1CCN(C(c2ccccc2)c2ccccc2)CC1 [7p] — what was its MIC?
OUT: > 25 µg/mL

Data origin, for the record: paper PMC8047747
